# Tested on: 60 cancer cell lines (NCI 60 cancer cell line series)
# procedure_text: NCI-DTP in vitro cancer screen, sulforhodamine B (SRB) growth inhibition, 48 hour exposure
# Type: cell-based, human
# settings: Breast MCF7/ADRr (CL5002)
Structures can show the parent of a compound that is named as a salt.
assay_endpoint: classification of cell line as Low(1), Medium(2) or High(3) sensitivity to compound
Output spec: single numeric token, no unit.

CC[C@]1(O)C[C@@H]2CN(CCc3c([nH]c4ccccc34)[C@@](C(=O)OC)(c3cc4c(cc3OC)N(C)[C@H]3[C@@](O)(C(=O)OC)[C@H](OC(C)=O)[C@]5(CC)C=CCN6CC[C@]43[C@@H]65)C2)C1 [Vinblastinesulfate] yielded classification of cell line as Low(1), Medium(2) or High(3) sensitivity to compound of 1

// O=C1c2c(O)ccc(O)c2C(=O)c2c(NCCNCCO)ccc(NCCNCCO)c21 : classification of cell line as Low(1), Medium(2) or High(3) sensitivity to compound value = 1

The molecule identified as CC[C@]1(O)C[C@H]2CN(CCc3c([nH]c4ccccc34)[C@@](C(=O)OC)(c3cc4c(cc3OC)N(C=O)[C@H]3[C@@](O)(C(=O)OC)[C@H](OC(C)=O)[C@]5(CC)C=CCN6CC[C@]43[C@@H]65)C2)C1 [Vincristine sulfate] registered its classification of cell line as Low(1), Medium(2) or High(3) sensitivity to compound at 2

Documented classification of cell line as Low(1), Medium(2) or High(3) sensitivity to compound of COc1cccc2c1C(=O)c1c(O)c3c(c(O)c1C2=O)C[C@@](O)(C(=O)CO)C[C@@H]3O[C@H]1C[C@H](N)C[C@H](C)O1 : 1

Consider NC(=O)NO [Hydroxyurea] . Its measured classification of cell line as Low(1), Medium(2) or High(3) sensitivity to compound is 2

// field: classification of cell line as Low(1), Medium(2) or High(3) sensitivity to compound; key: COc1cccc2c1C(=O)c1c(O)c3c(c(O)c1C2=O)C[C@@](O)(C(C)=O)C[C@@H]3O[C@H]1C[C@H](N)[C@H](O)[C@H](C)O1 ; value = 1

###

Recorded sensitivity class Renal UO-31 CL9004 values for a group of molecules are listed next.
# Tested on: 60 cancer cell lines (NCI 60 cancer cell line series)
# procedure_text: NCI-DTP in vitro cancer screen, sulforhodamine B (SRB) growth inhibition, 48 hour exposure
# Assay type: cell-based, human
# settings: cell line Renal UO-31, CL9004
Keep the answer to the number alone.

molecule: COc1cccc2c1C(=O)c1c(O)c3c(c(O)c1C2=O)C[C@@](O)(C(=O)CO)C[C@@H]3O[C@H]1C[C@H](N)[C@H](O)[C@H](C)O1 [Adriamycin]
sensitivity class Renal UO-31 CL9004: 1

The record that follows has no sensitivity class Renal UO-31 CL9004 shown yet.
Case COc1cc([C@@H]2c3cc4c(cc3[C@@H](O[C@@H]3O[C@@H]5CO[C@@H](C)O[C@H]5[C@H](O)[C@H]3O)[C@H]3COC(=O)[C@H]23)OCO4)cc(OC)c1O [Etoposide] , 60 cancer cell lines (NCI 60 cancer cell line series), sensitivity class Renal UO-31 CL9004 recorded as 1

###

# Test system: 60 cancer cell lines (NCI 60 cancer cell line series)
# procedure_text: NCI-DTP in vitro cancer screen, sulforhodamine B (SRB) growth inhibition, 48 hour exposure
# Type: cell-based, human
# settings: Breast MDA-N CL5012
# Description: Cancer Cell Line Preparation. Sixty cancer cell lines were obtained from the National Cancer Institute Developmental Therapeutics Program (NCI-DTP). […] No-drug, no-cell and no-growth controls are included. […] From dose response curves based on the SRB data, various parameters can be determined. […] More precisely, the quantity used in the calculation to be described is the potency measure -log{GI50}. […]
assay_endpoint: classification of cell line as Low(1), Medium(2) or High(3) sensitivity to compound
Lab note: record just the number, no unit beside it.

Reference set, count: 5
compound: COc1cccc2c1C(=O)c1c(O)c3c(c(O)c1C2=O)C[C@@](O)(C(=O)CO)C[C@@H]3O[C@H]1C[C@H](N)C[C@H](C)O1
reported: 2

compound: CC[C@@]1(O)C(=O)OCc2c1cc1n(c2=O)Cc2cc3c(CN(C)C)c(O)ccc3nc2-1
reported: 2

compound: O=C1c2c(O)ccc(O)c2C(=O)c2c(NCCNCCO)ccc(NCCNCCO)c21
reported: 1

compound: COc1cc([C@@H]2c3cc4c(cc3[C@@H](O[C@@H]3O[C@@H]5CO[C@@H](C)O[C@H]5[C@H](O)[C@H]3O)[C@H]3COC(=O)[C@H]23)OCO4)cc(OC)c1O [Etoposide]
reported: 3

compound: N.N.[Cl][Pt][Cl] [cisplatin, cis-Diamminedichloroplatinum (II), reference compound]
reported: 2

Value of measured classification of cell line as Low(1), Medium(2) or High(3) sensitivity to compound for the entry Sc1ncnc2nc[nH]c12 : 2

Lab note: measured classification of cell line as Low(1), Medium(2) or High(3) sensitivity to compound of NC(=O)NO [Hydroxyurea] was 1

The compound identified as CC[C@]1(O)C[C@@H]2CN(CCc3c([nH]c4ccccc34)[C@@](C(=O)OC)(c3cc4c(cc3OC)N(C)[C@H]3[C@@](O)(C(=O)OC)[C@H](OC(C)=O)[C@]5(CC)C=CCN6CC[C@]43[C@@H]65)C2)C1 [Vinblastinesulfate] registered its classification of cell line as Low(1), Medium(2) or High(3) sensitivity to compound at 3

According to the records, this compound COc1cccc2c1C(=O)c1c(O)c3c(c(O)c1C2=O)C[C@@](O)(C(=O)CO)C[C@@H]3O[C@H]1C[C@H](N)[C@H](O)[C@H](C)O1 displays classification of cell line as Low(1), Medium(2) or High(3) sensitivity to compound of 2

// recorded classification of cell line as Low(1), Medium(2) or High(3) sensitivity to compound for COc1cccc2c1C(=O)c1c(O)c3c(c(O)c1C2=O)C[C@@](O)(C(C)=O)C[C@@H]3O[C@H]1C[C@H](N)[C@H](O)[C@H](C)O1 : 1

Ref: patent US20020051978A1
